tested on: PXR homodimer (NR concentration 270 nM); experiment: PBM binding z-score (relative to random genomic background probes); higher = stronger binding; sequences stand for … in GC…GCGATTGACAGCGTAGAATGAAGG
Think of -0.1 as a floor: if PBM binding z-score stands on it or above, it is true; beneath it, false.

Known results for sequences:
[
  {
    "sequenceContent": "TCTTGTAGATCATCAGGTTAAGAAAGCTGGCCAA",
    "experimentalSystem": "PXR homodimer (NR concentration 270 nM)",
    "discreteLabel": "false"
  },
  {
    "sequenceContent": "AGAATGAGGTTGTTAAGATCAGGGAATTGCGGTC",
    "experimentalSystem": "PXR homodimer (NR concentration 270 nM)",
    "discreteLabel": "true"
  },
  {
    "sequenceContent": "TCATACAGGTAAATGCTAGGTGAAAGTCCGATCT",
    "experimentalSystem": "PXR homodimer (NR concentration 270 nM)",
    "discreteLabel": "true"
  },
  {
    "sequenceContent": "ATCTCTAGGTGACAAGTTCAGTGAAAGAGAGGAC",
    "experimentalSystem": "PXR homodimer (NR concentration 270 nM)",
    "discreteLabel": "true"
  },
  {
    "sequenceContent": "CGAACGAGGGCATGAGTTAATAGCAAATGCCGAT",
    "experimentalSystem": "PXR homodimer (NR concentration 270 nM)",
    "discreteLabel": "true"
  }
]

Exam item: Does the sequence GGTTACGGGTCAAAGGTTATAGCATGAATAGAAT have recorded PBM binding z-score that is -0.1 or more?
Marked response: true

Exam item: Does the sequence CCTTACGGGTCACTCCGGGTTATAGCATCGGAGT have recorded PBM binding z-score that is -0.1 or more?
Marked response: false

Exam item: Does the sequence TCATATAGGTAATACAGGAGAAAGTCGGCATCTA have recorded PBM binding z-score that is -0.1 or more?
Marked response: true

Exam item: Does the sequence ACTATTAGTTGACTTAGGGCAACGGATACGACGC have recorded PBM binding z-score that is -0.1 or more?
Marked response: true

====

system: PPARg homodimer (NR concentration 180 nM); assay: PBM binding z-score (relative to random genomic background probes); higher = stronger binding; sequences stand for … in GC…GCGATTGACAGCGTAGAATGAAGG
readoutType: PBM binding z-score
Kindly provide the number alone.

[
  {
    "sequenceContent": "TCGTGTAGATCAAAGGTTAAGAAAGCCGAAGCCT",
    "PBM binding z-score": 1.21
  },
  {
    "sequenceContent": "TCAGACAGATGAAGGTAACTCAGGTACGCAGTCG",
    "PBM binding z-score": 0.326
  },
  {
    "sequenceContent": "TCTATTAGTTGATTAGGGCAAACGAAACAGCGGA",
    "PBM binding z-score": 0.195
  },
  {
    "sequenceContent": "ACTATTCGTTGAGACGAGGGCAACCGATAGGTTG",
    "PBM binding z-score": 0.322
  }
]

Exam item: Item TCATATAGGTAAATGCTAGGTGAAATTCCGATCT with PPARg homodimer (NR concentration 180 nM) - PBM binding z-score?
Marked response: 1.04

Exam item: Item TCGAGTAGGTTAGACGGGGCATTCAGCCAACATA with PPARg homodimer (NR concentration 180 nM) - PBM binding z-score?
Marked response: -0.139

Exam item: Item CCAGACAGGTGAAAGGTAACGCAGTCTGGTACGC with PPARg homodimer (NR concentration 180 nM) - PBM binding z-score?
Marked response: 1.67

Exam item: Item TCATATAAGTAAACAGGTGAAAGTCCGTAAGTTA with PPARg homodimer (NR concentration 180 nM) - PBM binding z-score?
Marked response: 1.13

Exam item: Item ACAGACAGGTGATGAAGGTAACTCGGGCTATCAT with PPARg homodimer (NR concentration 180 nM) - PBM binding z-score?
Marked response: 0.503

Exam item: Item ATCGAAAGGTCGTGAGGTGAGGATACAGAAAGGC with PPARg homodimer (NR concentration 180 nM) - PBM binding z-score?
Marked response: 2.28

Exam item: Item CGTCCAATGTCAAGGTCAGTGAAAGAGACTCGAA with PPARg homodimer (NR concentration 180 nM) - PBM binding z-score?
Marked response: 2.25

Exam item: Item ACTACTAGTTGACTTAGGGCAACCGATACGACGC with PPARg homodimer (NR concentration 180 nM) - PBM binding z-score?
Marked response: 0.669

Cited source for all entries: the supplement of paper PMC6555819
